- target.or.test.system: T1, mIL2Rg ECD antigen (murine, UniProt P34902 23-263)
- T1 construct: The immunogen was the ECD fused to human IgG1 hinge and Fc; also called ECD of IL2Rg (mouse)
- T1 sequence: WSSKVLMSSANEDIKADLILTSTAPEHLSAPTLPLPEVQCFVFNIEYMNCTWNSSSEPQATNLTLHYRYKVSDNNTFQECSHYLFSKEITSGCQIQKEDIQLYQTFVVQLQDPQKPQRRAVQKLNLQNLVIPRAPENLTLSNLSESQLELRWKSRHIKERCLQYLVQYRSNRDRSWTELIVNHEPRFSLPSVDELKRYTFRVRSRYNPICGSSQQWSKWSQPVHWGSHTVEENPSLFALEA
- assay.name: PE-ELISA of phage clones
property.label: binding result

[[record]]
binder = "mIL2Rg_VHH7 (VHH, As a his-tagged phage clone periplasmic extract) VHH: QVQLQESGGGLVQPGGSLRLSCTVSGFTFDESDMGWLRQNPGNECGVVSVITSDDNPYYDDSVKGRFTISEDNAKNMVYLQMNSLKPEDTGVYYCATRSRQPVYSRDYELRPRPLCGDFGVWGQGTQVTVSS"
recorded_measurement = "binds"

[[record]]
binder = "mIL2Rg_VHH6 (VHH, As a his-tagged phage clone periplasmic extract) VHH: QVQLQESGGGSVQAGGSLRLSCATSGFPYSRYCMGWFRQAPGKEREGVAAIEPDGSTSYADSVKGRFTISQDNAVNTLYLQMNNLKPEDTAMYYCAADERCFYLKDYDLRRPAQYRYWGQGTQVTVSS"
recorded_measurement = "binds"

